Data provenance is patent US10363239B2.

- study-target: FLNA pentapeptide of SEQ ID NO: 1 (Bn-VAKGL) (Homo sapiens, UniProt P21333)
- test-protocol: FITC-NLX-based FLNA screening assay (inhibition of FITC-naloxone binding to Bn-VAKGL on streptavidin plates)
- condition-info: FLNA-binding compound 0.1 μM; 10 nM FITC-NLX; read-out: Percent Binding Inhibition
observation-type: inhibition at 0.1 µM

Query string: Would you mind telling me what inhibition at 0.1 µM value was observed for CC1CN(CC(O)COC2CCCCC2)CC(C)O1 (centres unmarked) ?
Result string: 38.6%

Query string: Need inhibition at 0.1 µM, item CC(=O)N1CCSC12CCN(S(=O)(=O)c1ccc([N+](=O)[O-])cc1)CC2
Result string: 34.5%

Query string: Would you kindly share the measured inhibition at 0.1 µM for O=C1CNC2(CCN(CC3CC3)CC2)N1 [Compound C0123M] ?
Result string: 60.5%

Query string: Find the recorded inhibition at 0.1 µM belonging to CC1CN(CC(O)COc2cccc(C(F)(F)F)c2)CC(C)O1 (centres unmarked) and report it.
Result string: 45.4%

Query string: So what's the measured inhibition at 0.1 µM for this one? CC1CN(CC(O)COc2cccc(F)c2)CC(C)O1 (centres unmarked)
Result string: 49.4%

Query string: I have this compound here, CC1CN(CC(O)COc2cccc(N(C)C)c2)CC(C)O1 (centres unmarked) , and I need its recorded inhibition at 0.1 µM.
Result string: 48.3%

Query string: I am curious: what inhibition at 0.1 µM value has been reported for CC(=O)c1ccc(S(=O)(=O)N2CCC3(CC2)NCCS3)cc1 ?
Result string: 64%

Query string: For the compound Cc1ccc(S(=O)(=O)N2CCOC23CCN(CC2CC2)CC3)cc1 [Compound C0134M] , what inhibition at 0.1 µM is on record?
Result string: 60.5%

* * *

- study-target: FLNA pentapeptide of SEQ ID NO: 1 (Bn-VAKGL) (Homo sapiens, UniProt P21333)
- test-protocol: FITC-NLX-based FLNA screening assay (inhibition of FITC-naloxone binding to Bn-VAKGL on streptavidin plates)
- condition-info: read-out: Percent Binding Inhibition, FLNA-binding compound 0.01 μM; 10 nM FITC-NLX
Would you mind labelling by inhibition at 0.01 µM? At or over 50% is condition met, under is condition not met.

Query string: API: above_or_equal(metric=inhibition at 0.01 µM, cutoff=50%) for item COc1c2c(cc3c1C(CC(=O)CCc1ccc(O)cc1)[N+](C)(C)CC3)OCO2 (centres unmarked)
Result string: condition not met

Query string: For this compound, is measured inhibition at 0.01 µM 50% or higher? CC(=O)c1ccc(S(=O)(=O)N2CC(CN(C)C)OC23CCN(C)CC3)cc1 (centres unmarked) [Compound C0108M]
Result string: condition met

Query string: Does inhibition at 0.01 µM meet or surpass 50% for COc1c2c(cc3c1C(CC(=O)c1ccc(N4CCOCC4)cc1)[N+](C)(C)CC3)OCO2 (centres unmarked) ?
Result string: condition not met

Query string: Decide: is the reported value of inhibition at 0.01 µM for COc1c2c(cc3c1C(CC(=O)CCc1ccccc1)[N+](C)(C)CC3)OCO2 (centres unmarked) equal to or greater than 50%?
Result string: condition not met

Query string: Could you tell me if the measured inhibition at 0.01 µM of COc1ccc(C(=O)N2CCOC23CCN(S(=O)(=O)c2ccc(OC)cc2)CC3)cc1 reaches 50% or more?
Result string: condition not met

Query string: Tell me whether inhibition at 0.01 µM is at least 50% here: COc1ccc(CC(=O)CC2c3c(cc4c(c3OC)OCO4)CC[N+]2(C)C)c(OC)c1 (centres unmarked)
Result string: condition not met

Query string: Does the compound O=S(=O)(c1ccc(Br)c(C(F)(F)F)c1)N1CCC2(CC1)OCCN2S(=O)(=O)c1ccc(Br)c(C(F)(F)F)c1 have recorded inhibition at 0.01 µM that is 50% or more?
Result string: condition not met

Query string: Please check the record CS(=O)(=O)c1ccc(S(=O)(=O)N2CCOC23CCNCC3)cc1 [Compound C0116M] and state if its inhibition at 0.01 µM is at or above 50%.
Result string: condition met

Query string: Test whether the compound COc1c2c(cc3c1C(CC(=O)c1cccc(C(F)(F)F)c1)[N+](C)(C)CC3)OCO2 (centres unmarked) records inhibition at 0.01 µM of 50% or higher.
Result string: condition not met

Query string: Hi team, for COc1cc(OC)cc(C(=O)CC2c3c(cc4c(c3OC)OCO4)CC[N+]2(C)C)c1 (centres unmarked) , is the recorded inhibition at 0.01 µM at or above 50%?
Result string: condition not met

Query string: In plain terms: is recorded inhibition at 0.01 µM at least 50% for COc1c2c(cc3c1C(CC(=O)Cc1ccccc1C)[N+](C)(C)CC3)OCO2 (centres unmarked) ?
Result string: condition not met

Query string: hey, is inhibition at 0.01 µM for this one >= 50%? CC1CCC(C(C)C)C(OCC(O)CN2CCCCC2)C1 (centres unmarked)
Result string: condition not met

Query string: Could you verify whether the entry O=C1CNC2(CCNCC2)N1Cc1ccccc1 [Compound C0114M] shows inhibition at 0.01 µM of no less than 50%?
Result string: condition met

Query string: Does the reported inhibition at 0.01 µM for COc1ccccc1CCC(=O)CC1c2c(cc3c(c2OC)OCO3)CC[N+]1(C)C (centres unmarked) fall at or above the 50% mark?
Result string: condition met

Query string: Would you say O=C(c1ccc([N+](=O)[O-])cc1)N1CCC2(CC1)OCCN2S(=O)(=O)c1ccc([N+](=O)[O-])cc1 shows inhibition at 0.01 µM at minimum 50%?
Result string: condition not met

Query string: Is inhibition at 0.01 µM for CC1CCC(C(C)C)C(OCC(O)CN2CCC(=O)CC2)C1 (centres unmarked) at or above 50%?
Result string: condition not met
